- STUDY_TARGET: TACE (catalytic domain of the recombinant TACE protein) (Homo sapiens, UniProt P78536)
- Construct: The catalytic domain of the recombinant TACE protein was expressed and purified; made in house
- Sequence (P78536 223-474 limits assumed): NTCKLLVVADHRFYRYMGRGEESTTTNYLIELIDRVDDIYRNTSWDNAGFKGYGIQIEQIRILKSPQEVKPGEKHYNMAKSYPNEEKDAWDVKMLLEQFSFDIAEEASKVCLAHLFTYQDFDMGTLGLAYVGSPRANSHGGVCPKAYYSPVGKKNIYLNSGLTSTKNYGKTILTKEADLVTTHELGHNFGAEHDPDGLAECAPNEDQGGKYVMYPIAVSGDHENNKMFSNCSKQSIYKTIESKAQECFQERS
- EXPERIMENT_DESCRIPTION: TACE FRET assay using TACE Cat
- Type: biochemical
- EXPERIMENTAL_SETUP: FRET, pro-TNF-α substrate peptide; read-out: TACE IC50
# IC50 listing for each entry below

Worked cases, IC50 given:
>  <MOLECULE>
Cc1cc(COc2ccc(S(=O)(=O)N[C@H]3CCN(C(=O)NC(C)(C)C)C[C@H]3C(=O)NO)cc2)c2ccccc2n1

>  <REPORTED_VALUE>
< 0.6 nM

$$$$
>  <MOLECULE>
Cc1cc(COc2ccc(S(=O)(=O)N[C@@H]3CCN(C=O)C[C@]3(C)C(=O)NO)cc2)c2ccccc2n1

>  <REPORTED_VALUE>
< 0.6 nM

$$$$
>  <MOLECULE>
Cc1cc(COc2ccc(S(=O)(=O)N[C@H]3[C@@H](C(=O)NO)[C@H]4C=C[C@@H]3C4)cc2)c2ccccc2n1 (relative stereo)

>  <REPORTED_VALUE>
1.2 nM

$$$$
>  <MOLECULE>
Cc1cc(COc2ccc(S(=O)(=O)N[C@H]3COC[C@H]3C(=O)NO)cc2)c2ccccc2n1 (stereo in doubt)

>  <REPORTED_VALUE>
0.6 nM

$$$$

I'd like to know its IC50. The molecule in question is Cc1cc(COc2ccc(S(=O)(=O)N(C)C3C4CCC(C4)C3C(=O)NO)cc2)c2ccccc2n1 (single isomer, unassigned) [Example 1b]
43 nM

I'd like to know its IC50. The molecule in question is Cc1cc(COc2ccc(S(=O)(=O)N[C@]3(C)CCCC[C@@H]3C(=O)NO)cc2)c2ccccc2n1 (racemic)
< 0.6 nM

###

# pIC50 listing for each entry below
- STUDY_TARGET: TACE (catalytic domain of the recombinant TACE protein) (Homo sapiens)
- Construct: The catalytic domain of the recombinant TACE protein was expressed and purified; made in house
- EXPERIMENT_DESCRIPTION: TACE FRET assay using TACE Cat
- Type: biochemical
- EXPERIMENTAL_SETUP: FRET, pro-TNF-α substrate peptide; read-out: TACE IC50
pIC50: −log10 of the molar value.

>  <MOLECULE>
Cc1cc(COc2ccc(S(=O)(=O)N[C@@H]3CN(C(=O)OC(C)(C)C)C[C@@H]3C(=O)NO)cc2)c2ccccc2n1 (relative stereo) [Example 21]

>  <pIC50>
> 9.22

$$$$

I'd like to know its pIC50. The molecule in question is Cc1cc(COc2ccc(S(=O)(=O)N[C@@H]3CCC[C@@H]3C(=O)NO)cc2)c2ccccc2n1 [Example 13]
> 9.22

I'd like to know its pIC50. The molecule in question is Cc1cc(COc2ccc(S(=O)(=O)N[C@@H]3[C@H]4CC[C@H](C4)[C@@H]3C(=O)NO)cc2)c2ccccc2n1 (relative stereo) [Example 4]
> 9.22

###

- STUDY_TARGET: recombinant human MMP-2 (Homo sapiens)
- Sequence (P08253 110-660): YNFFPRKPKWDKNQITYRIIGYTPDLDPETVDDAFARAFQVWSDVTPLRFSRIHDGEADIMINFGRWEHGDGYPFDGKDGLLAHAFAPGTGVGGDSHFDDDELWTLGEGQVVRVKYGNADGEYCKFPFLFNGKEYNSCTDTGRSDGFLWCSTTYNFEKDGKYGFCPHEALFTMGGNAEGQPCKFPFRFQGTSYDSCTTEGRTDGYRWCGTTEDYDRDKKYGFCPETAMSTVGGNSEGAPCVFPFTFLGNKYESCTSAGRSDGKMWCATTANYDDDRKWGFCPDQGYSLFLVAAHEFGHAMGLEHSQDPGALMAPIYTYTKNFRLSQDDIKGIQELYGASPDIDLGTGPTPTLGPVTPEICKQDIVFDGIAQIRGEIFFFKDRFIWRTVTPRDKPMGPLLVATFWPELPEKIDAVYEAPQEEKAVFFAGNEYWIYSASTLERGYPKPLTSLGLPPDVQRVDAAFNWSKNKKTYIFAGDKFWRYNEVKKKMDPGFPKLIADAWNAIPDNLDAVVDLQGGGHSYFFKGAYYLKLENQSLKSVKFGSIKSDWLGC
- EXPERIMENT_DESCRIPTION: In-vitro fluorescence assay of MMP-2 activity
pIC50: −log10 of the molar value.
MEASUREMENT_LABEL: pIC50

>  <COMPOUND>
C#CCN1CC[C@@H](NS(=O)(=O)c2ccc(OCc3cc(C)nc4ccccc34)cc2)[C@@](C)(C(=O)NO)C1

>  <STUDY_TARGET>
recombinant human MMP-2 (Homo sapiens)

>  <pIC50>
< 4.78

$$$$
>  <COMPOUND>
Cc1cc(COc2ccc(S(=O)(=O)N(C)[C@@H]3CCC[C@@H]3C(=O)NO)cc2)c2ccccc2n1 (relative stereo)

>  <STUDY_TARGET>
recombinant human MMP-2 (Homo sapiens)

>  <pIC50>
5.01

$$$$
>  <COMPOUND>
Cc1cc(COc2ccc(S(=O)(=O)NC3C(C(=O)NO)C4CCC3N4C(=O)OC(C)(C)C)cc2)c2ccccc2n1 (stereo not drawn)

>  <STUDY_TARGET>
recombinant human MMP-2 (Homo sapiens)

>  <pIC50>
< 4.78

$$$$
>  <COMPOUND>
Cc1cc(COc2ccc(S(=O)(=O)N[C@@H]3CCC[C@@H]3C(=O)NO)cc2)c2ccccc2n1 (relative stereo) [Example 11]

>  <STUDY_TARGET>
recombinant human MMP-2 (Homo sapiens)

>  <pIC50>
< 4.78

$$$$
>  <COMPOUND>
Cc1cc(COc2ccc(S(=O)(=O)N[C@@H]3CCC[C@]3(F)C(=O)NO)cc2)c2ccccc2n1

>  <STUDY_TARGET>
recombinant human MMP-2 (Homo sapiens)

>  <pIC50>
< 4.78

$$$$

Please look at the following compound next.
I'd like to know its pIC50. The compound in question is Cc1cc(COc2ccc(S(=O)(=O)N(C)[C@H]3[C@@H](C(=O)NO)[C@H]4C=C[C@@H]3C4)cc2)c2ccccc2n1 (relative stereo)
< 4.78

###

- STUDY_TARGET: recombinant human MMP-7 (Homo sapiens, UniProt P09237)
- Construct: Active, recombinant human MMP-7 was purchased from Calbiochem (catalog #444270
- Sequence (P09237 95-267): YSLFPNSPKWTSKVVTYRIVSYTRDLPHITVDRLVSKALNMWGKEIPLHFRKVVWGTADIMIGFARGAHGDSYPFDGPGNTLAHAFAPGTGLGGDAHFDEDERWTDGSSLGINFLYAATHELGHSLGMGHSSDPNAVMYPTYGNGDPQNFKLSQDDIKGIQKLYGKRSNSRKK
- EXPERIMENT_DESCRIPTION: In-vitro fluorescence assay of MMP-7 activity
MEASUREMENT_LABEL: pIC50
Would you please state pIC50, meaning minus log10 of the concentration in mol/L, as a bare number?

Worked cases, pIC50 given:
>  <COMPOUND>
CCNC(=O)N1C[C@H](C(=O)NO)[C@H](NS(=O)(=O)c2ccc(OCc3cc(C)nc4ccccc34)cc2)C1 (relative stereo) [Example 23]

>  <pIC50>
5.93

$$$$
>  <COMPOUND>
Cc1cc(COc2ccc(S(=O)(=O)N[C@H]3COC[C@H]3C(=O)NO)cc2)c2ccccc2n1 (stereo in doubt) [Example 26]

>  <pIC50>
6.08

$$$$
>  <COMPOUND>
Cc1cc(COc2ccc(S(=O)(=O)N[C@@H]3CN(C=O)C[C@@H]3C(=O)NO)cc2)c2ccccc2n1 (relative stereo) [Example 20]

>  <pIC50>
6.09

$$$$

Please look at the following compound next.
I'd like to know its pIC50. The compound in question is Cc1cc(COc2ccc(S(=O)(=O)N[C@@H]3CN(S(C)(=O)=O)C[C@@H]3C(=O)NO)cc2)c2ccccc2n1 (relative stereo) [Example 17]
6.18

###

- STUDY_TARGET: recombinant human MMP-2 (Homo sapiens)
- EXPERIMENT_DESCRIPTION: In-vitro fluorescence assay of MMP-2 activity
pIC50: −log10 of the molar value.
# pIC50 listing for each entry below

Worked cases, pIC50 given:
>  <MOLECULE>
Cc1cc(COc2ccc(S(=O)(=O)N[C@H]3[C@@H](C(=O)NO)[C@H]4C=C[C@@H]3C4)cc2)c2ccccc2n1 (relative stereo) [Example 7]

>  <REPORTED_VALUE>
< 4.78

$$$$
>  <MOLECULE>
Cc1cc(COc2ccc(S(=O)(=O)N[C@@H]3CN(C=O)C[C@@H]3C(=O)NO)cc2)c2ccccc2n1 (relative stereo) [Example 20]

>  <REPORTED_VALUE>
< 5.00

$$$$
>  <MOLECULE>
Cc1cc(COc2ccc(S(=O)(=O)N[C@H]3COC[C@H]3C(=O)NO)cc2)c2ccccc2n1 (stereo in doubt) [Example 26]

>  <REPORTED_VALUE>
< 4.78

$$$$

I'd like to know its pIC50. The molecule in question is CCNC(=O)N1C[C@H](C(=O)NO)[C@H](NS(=O)(=O)c2ccc(OCc3cc(C)nc4ccccc34)cc2)C1 (relative stereo) [Example 23]
< 4.78

I'd like to know its pIC50. The molecule in question is Cc1cc(COc2ccc(S(=O)(=O)N[C@@H]3CCC[C@]3(C)C(=O)NO)cc2)c2ccccc2n1 [Example 55]
< 4.78

I'd like to know its pIC50. The molecule in question is Cc1cc(COc2ccc(S(=O)(=O)N[C@H]3[C@@H](C(=O)NO)[C@@H]4CC[C@H]3O4)cc2)c2ccccc2n1 (relative stereo) [Example 2]
< 4.78

I'd like to know its pIC50. The molecule in question is Cc1cc(COc2ccc(S(=O)(=O)N[C@@H]3CCNC[C@]3(O)C(=O)NO)cc2)c2ccccc2n1 [Example 59]
< 5.00
